Each recorded value in this set is attributed to paper PMC5693660.

Sequence of the target: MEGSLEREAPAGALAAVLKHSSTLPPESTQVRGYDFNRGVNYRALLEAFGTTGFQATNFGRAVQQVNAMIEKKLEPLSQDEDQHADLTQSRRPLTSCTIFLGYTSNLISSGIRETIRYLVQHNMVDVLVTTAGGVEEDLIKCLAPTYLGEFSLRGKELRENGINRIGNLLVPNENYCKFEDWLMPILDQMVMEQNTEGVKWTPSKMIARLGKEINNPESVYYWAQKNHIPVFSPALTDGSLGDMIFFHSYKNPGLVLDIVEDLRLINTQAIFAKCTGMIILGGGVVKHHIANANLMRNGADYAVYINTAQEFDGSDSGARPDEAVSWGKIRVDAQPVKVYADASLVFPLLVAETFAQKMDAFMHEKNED
pIC50: −log10 of the molar value.
measured.attribute: pIC50

INSERT INTO assay_data (compound, recorded_measurement) VALUES
  ('N=C(N)NCCCCCCCN', '> 6.00');
